# Lookup of reported MIC keyed by entry
tested on: Escherichia coli; assay: Antibacterial activity against multi-drug resistant Escherichia coli NMI 3548/14 assessed as reduction in microbial growth incubated for 20 hrs; assay type: functional; conditions: NMI 3548/14, 20 h
Reply with just the number (in µg/mL).

C[C@@H](O)[C@H]1C(=O)N2C(C(=O)O)=C(S[C@@H]3CN[C@H](C(=O)N(C)C)C3)[C@H](C)[C@H]12 0.5
CCN1CCN(C(=O)N[C@@H](C(=O)N[C@@H]2C(=O)N3[C@@H]2SC(C)(C)[C@@H]3C(=O)O)c2ccccc2)C(=O)C1=O 8

Give the measured MIC of "CO/N=C(\C(=O)N[C@@H]1C(=O)N2C(C(=O)[O-])=C(C[N+]3(C)CCCC3)CS[C@H]12)c1csc(N)n1" .
2

These data points were gathered from ChEMBL document CHEMBL4390654.
